testedTarget: SARS-CoV-2 3CLpro (Severe acute respiratory syndrome coronavirus 2, UniProt P0DTD1)
testMethodNotes: biochemical
Assay type: biochemical
Design: unit not given here
Counter-ions that a name gives are not always drawn.
# note: exactly 0.6 is not below, so it is false; use true for Replicate_1 strictly under it

molecule	labelClass
CN1CCc2ccccc2Cc2[nH]c3ccccc3c2CC1	true
Cl.O=S(=O)(c1cccc2c(I)cccc12)N1CCCNCC1	false
C=CCN1C[C@H](C)N([C@H](c2ccc(C(=O)N(CC)CC)cc2)c2cccc(OC)c2)C[C@H]1C	true
CC1CCN=C(N)S1.Cl (racemic) [(±)-AMT hydrochloride]	false
CCCCCCCCCCCCCCCCOCC(COCC(F)(F)F)OP(=O)(O)OC (centres unmarked)	false
Cl.c1ccc([C@H]2CN3CCSC3=N2)cc1 [(-)-Tetramisole hydrochloride]	true
O=C(c1ccc2c(c1)OCCO2)N1CCCCC1	false
C[C@@H](N)Cc1cnc[nH]1.Cl.Cl	false
N[C@H](C(=O)O)[C@H]1C[C@@H]1C(=O)O	false
O=[N+]([O-])c1cc2nc(O)c(O)nc2cc1[N+](=O)[O-]	false
C#C[C@]1(O)CC[C@H]2[C@@H]3CCC4=Cc5nc6nc7ccccc7n6cc5C[C@]4(C)[C@H]3CC[C@@]21C	true
S=C=Nc1ccc2oc(C3=NCCN3)cc2c1	false
COc1cc(CC(C)N)c(OC)cc1I.Cl (racemic) [(±)-DOI hydrochloride]	false
CN(C)CCC(c1ccc(Cl)cc1)c1ccccn1.O=C(O)/C=C\C(=O)O (racemic) [(±)-Chlorpheniramine maleate]	true
O=c1onc2n1-c1cc(Br)ccc1OC2	false
N[C@@H]1C[C@H]1c1ccccc1 [Tranylcypromine hydrochloride]	true
Cn1c(=O)c2[nH]cnc2n(C)c1=O.Cn1c(=O)c2[nH]cnc2n(C)c1=O.NCCN	true
Cl.O=S(=O)(c1cccc2c(Cl)cccc12)N1CCCNCC1	false
CNCC(O)c1ccc(O)c(O)c1.Cl (racemic) [(±)-Epinephrine hydrochloride]	false
Cl.Nc1c2c(nc3ccccc13)CCCC2	false

* * *

Known mean of a selection of compounds
testedTarget: SARS-CoV-2 3CLpro (Severe acute respiratory syndrome coronavirus 2)
testMethodNotes: biochemical
Format: biochemical
Set-up: unit not given here
conditionSet: sheet LOPAC_screen_w_protease; primary screen with protease, mean of two replicates

compound	mean
CC(/C=C/c1cccc(Oc2ccc(F)cc2)c1)N(O)C(N)=O (centres unmarked) [BWB70C]	2.212
Br.CCCN(CCC)[C@@H]1CCc2ccc(O)cc2C1 [R-(+)-7-Hydroxy-DPAT hydrobromide]	2.2447
CCCCC1(C2CCCC2)Cc2cc(OCC(=O)O)c(Cl)c(Cl)c2C1=O (stereo in doubt) [R(+)-Butylindazone]	2.217
CC(=O)O[C@H]1C[C@@]2(C)[C@@H](C[C@@H](O)[C@H]3[C@@]4(C)CC[C@@H](O)[C@@H](C)[C@@H]4CC[C@@]32C)/C1=C(\CCC=C(C)C)C(=O)[O-].[Na+] [Fusidic acid sodium]	2.25
CN1CCC(c2c[nH]c3ccc(O)cc23)CC1.O=C(O)/C=C\C(=O)O [BRL 54443 maleate]	2.426

* * *

testedTarget: SARS-CoV-2 3CLpro (Severe acute respiratory syndrome coronavirus 2, UniProt P0DTD1)
testMethodNotes: biochemical
Format: biochemical
conditionSet: 4 h, sheet LOPAC_screen_w_protease; LOPAC1280 primary screen at 5 µM, with protease; replicate 2; read-out: Replicate_2
Where a name gives a salt, the structure may show the parent alone.

compound	displayUnit	inhibition at 5 µM
N[C@@H](Cc1c[nH]c2ccccc12)C(=O)O [L-Tryptophan]	%	-0.955
Nc1c(S(=O)(=O)O)cc(Nc2ccc(Nc3nc(Cl)nc(Nc4cccc(S(=O)(=O)O)c4)n3)c(S(=O)(=O)O)c2)c2c1C(=O)c1ccccc1C2=O [Reactive Blue 2]	%	1.79
Nc1nc(O)c2ncn(COC(CO)CO)c2n1 [Ganciclovir]	%	0.479
CC(=O)C(C)=O [2,3-Butanedione]	%	-0.473
CCc1cccc2c3c([nH]c12)C(CC)(CC(=O)O)OCC3 (stereo not shown) [Etodolac]	%	-0.164
C=C(C)[C@H]1Cc2c(ccc3c2O[C@@H]2COc4cc(OC)c(OC)cc4[C@@H]2C3=O)O1 [Rotenone]	%	-1.01
CC(C)CN(C)c1nc(N)c(C(=O)N=C(N)N)nc1Cl [5-(N-Methyl-N-isobutyl)amiloride]	%	0.66
C[N+]1(C)[C@@H]2C[C@@H](OC(=O)[C@H](CO)c3ccccc3)C[C@H]1[C@@H]1O[C@@H]12 [(-)-Scopolamine methyl bromide]	%	-3.16
CN1CCc2cccc(Cl)c2CC1 [SKF 86466]	%	0.768
O=C(O)CP(=O)(O)O [Phosphonoacetic acid]	%	0.954
CN(C)CCCN1c2ccccc2Sc2ccc(C(F)(F)F)cc21 [Triflupromazine hydrochloride]	%	-0.271
NS(=O)(=O)Cc1noc2ccccc12 [Zonisamide sodium]	%	1.18
COc1ccc(Cl)cc1C(=O)NCCc1ccc(S(=O)(=O)NC(=O)NC2CCCCC2)cc1 [Glibenclamide]	%	0.155
CCCCCCCCCCCCCCSCC(=O)O [Tetradecylthioacetic acid]	%	-1.82
CC(=O)NCCc1c[nH]c2ccccc12 [N-Acetyltryptamine]	%	0.543
NC(=O)CC[C@H](N)C(=O)O [L-Glutamine]	%	-0.384
CC1(C)NC(=O)N(c2ccc([N+](=O)[O-])c(C(F)(F)F)c2)C1=O [Nilutamide]	%	-0.697
Oc1c2ccccc2c2c3c(cccc13)N=N2 [SP600125]	%	-4.45
CC(C)NCC(O)COc1cccc2[nH]ccc12 (stereo not shown) [Pindolol]	%	1.4

* * *

mean values, listed per item
testedTarget: SARS-CoV-2 3CLpro (Severe acute respiratory syndrome coronavirus 2, UniProt P0DTD1)
testMethodNotes: biochemical
Type: biochemical
Design: unit not given here
conditionSet: sheet LOPAC_screen_w_protease; primary screen with protease, mean of two replicates
property: mean

compound	numericResult
CCCCCCCCCCC/C=C\C(C)(C)/C=C\CCCC(=O)O [7,7-Dimethyl-(5Z,8Z)-eicosadienoic acid]	2.303
NC(N)=NCc1cccc(I)c1.NC(N)=NCc1cccc(I)c1.O=S(=O)(O)O [m-Iodobenzylguanidine hemisulfate]	2.496
NCC(CC(=O)O)c1ccc(Cl)cc1 (racemic) [(±)-Baclofen]	2.345
COc1cc2c(CCNC(C)=O)c[nH]c2cc1O [6-Hydroxymelatonin]	2.302
Cl.O=C(OC1CCN(CCCl)CC1)C(c1ccccc1)c1ccccc1	2.3143
C#CC(N)CCC(=O)O (stereo not drawn) [gamma-Acetylinic GABA]	2.242
CSc1nc(N)c2ncn([C@@H]3O[C@H](COP(=O)([O-])OP(=O)([O-])OP(=O)([O-])[O-])[C@@H](O)[C@H]3O)c2n1.[Na+].[Na+].[Na+].[Na+]	2.299
O=c1[nH]c2ccccc2c2ccccc12 [6(5H)-Phenanthridinone]	2.579
CN1C(=O)CC[C@H]1c1cccnc1 [(-)-Cotinine]	2.4459
Nc1ccc(N2C(=O)c3ccccc3C2=O)c(Cl)c1 [N-(4-Amino-2-chlorophenyl)phthalimide]	2.38
CCN1CCC[C@H]1CNC(=O)c1c(OC)ccc(I)c1O [S(-)-IBZM]	2.422
COc1cccc(C(=O)NCCN2CCN(c3ccc(Cl)cc3)CC2)c1	2.269
CC(=O)N[C@@H](Cc1c[nH]c2ccccc12)C(=O)OCc1cc(C(F)(F)F)cc(C(F)(F)F)c1 [L-732,138]	2.284
O=S1(=O)N(CCN2CC=C(c3c[nH]c4cc(F)ccc34)CC2)c2cccc3c2N1CCC3 [LY-367,265]	2.318
CCCn1c(=O)[nH]c(=O)c2nc[nH]c21 [3-n-Propylxanthine]	2.529
CC(=O)O.NC(=NCCC[C@H](N)C(=O)O)NO [NG-Hydroxy-L-arginine acetate]	2.232
NC/C=C\C(=O)O [cis-4-Aminocrotonic acid]	2.546
CC1CN(S(=O)(=O)c2cccc3cnccc23)CCN1.Cl.Cl (stereo not drawn)	2.412

* * *

// values below are reported mean
testedTarget: SARS-CoV-2 3CLpro (Severe acute respiratory syndrome coronavirus 2)
testMethodNotes: biochemical
Format: biochemical
Parameters: unit not given here
conditionSet: sheet LOPAC_screen_w_protease; LOPAC1280 primary screen with protease, 5 µM compound; mean of the two replicates
property: mean

compound	property	numericResult
Cl.O=c1cc(N2CCOCC2)oc2c(-c3ccccc3)cccc12 [LY-294,002 hydrochloride]	mean	5.665
Cc1nnc2ccc(-c3cccc(C(F)(F)F)c3)nn12	mean	4.5531
C[C@](N)(Cc1ccc(O)cc1)C(=O)O [L-alpha-Methyl-p-tyrosine]	mean	4.979
CCCN1CCC[C@@H]2Cc3nc(N)ncc3C[C@H]21.Cl.Cl [Quinelorane dihydrochloride]	mean	6.182
CC(C)NCC(O)c1cc(O)cc(O)c1.CC(C)NCC(O)c1cc(O)cc(O)c1.O=S(=O)(O)O (stereo not drawn) [Metaproterenol hemisulfate]	mean	4.319
N[C@@H](COP(=O)(O)O)C(=O)O [O-Phospho-L-serine]	mean	5.279
O=C(Nc1cccc(C(=O)Nc2ccc(S(=O)(=O)O)c3cc(S(=O)(=O)O)cc(S(=O)(=O)O)c23)c1)Nc1cccc(C(=O)Nc2ccc(S(=O)(=O)O)c3cc(S(=O)(=O)O)cc(S(=O)(=O)O)c23)c1 [NF 023, reference compound]	mean	6.11
Cc1[nH]c2ccc(O)cc2c1CCN.O=C(O)/C=C\C(=O)O [2-Methyl-5-hydroxytryptamine maleate]	mean	5.124
NCCCS(=O)(=O)O.[Na] [3-Amino-1-propanesulfonic acid sodium]	mean	5.742
Cl.Cl.Cn1cnc(CCN)c1 [1-Methylhistamine dihydrochloride]	mean	4.368
CN1CCN(C2Cc3ccccc3Sc3ccc(Cl)cc32)CC1.O=C(O)/C=C\C(=O)O (racemic) [(±)-Octoclothepin maleate]	mean	4.928
Cl.O=C(CCCN1CCC2(CC1)C(=O)N(CCc1ccc(N=C=S)cc1)CN2c1ccccc1)c1ccc(F)cc1	mean	5.051
CC(N)Cc1c[nH]c2ccc(O)cc12.O=C(O)/C=C\C(=O)O (stereo not drawn) [alpha-Methyl-5-hydroxytryptamine maleate]	mean	6.214
CC(COc1ccc(/C=C/c2ccccc2)cc1)[N+](C)(C)C.[I-] (stereo not drawn)	mean	5.814
O=[N+]([O-])c1ccc(CSc2ncnc3c2ncn3[C@@H]2O[C@H](CO)[C@@H](O)[C@H]2O)cc1 [S-(4-Nitrobenzyl)-6-thioinosine]	mean	4.84
